// data source = patent US20240009191A1

molecular target: AT1R-CXCR2 heteromer (Homo sapiens, UniProt P25025+P30556); assay: BRET Gi coupling, CXCR2/Rluc8, Venus/mGsi and HA-AT1R, pre-treatment with antagonists/inverse agonists; assay type: cell-based; settings: 10 nM CXCL8, 50 minutes after pre-treatment with antagonists/inverse agonists (10 μM); FIGS. 6-15
Sequence (P25025 whole entry): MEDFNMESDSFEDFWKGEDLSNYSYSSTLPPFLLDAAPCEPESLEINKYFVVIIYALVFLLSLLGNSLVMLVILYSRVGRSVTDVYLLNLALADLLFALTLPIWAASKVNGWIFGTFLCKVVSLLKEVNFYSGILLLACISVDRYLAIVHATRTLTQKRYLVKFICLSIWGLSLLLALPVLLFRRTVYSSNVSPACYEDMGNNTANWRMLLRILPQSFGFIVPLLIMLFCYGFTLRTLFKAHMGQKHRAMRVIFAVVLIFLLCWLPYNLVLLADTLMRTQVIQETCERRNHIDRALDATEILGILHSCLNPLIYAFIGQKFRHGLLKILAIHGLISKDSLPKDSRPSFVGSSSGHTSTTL
Sequence (P30556 whole entry): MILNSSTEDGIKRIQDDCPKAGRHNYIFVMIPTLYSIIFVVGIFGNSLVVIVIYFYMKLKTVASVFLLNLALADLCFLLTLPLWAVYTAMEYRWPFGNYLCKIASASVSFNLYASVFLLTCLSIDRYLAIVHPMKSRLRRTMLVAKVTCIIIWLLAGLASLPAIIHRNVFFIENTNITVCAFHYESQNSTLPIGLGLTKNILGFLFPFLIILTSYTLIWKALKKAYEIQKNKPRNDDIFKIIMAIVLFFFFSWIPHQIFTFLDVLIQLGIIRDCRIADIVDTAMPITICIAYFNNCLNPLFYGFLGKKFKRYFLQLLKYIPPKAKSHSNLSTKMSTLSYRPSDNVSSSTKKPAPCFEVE
Quantity Kind: effect of CXCL8 only on CXCR2/Rluc8-Venus/mGsi BRET

CCCc1nc2c(C)cc(-c3nc4ccccc4n3C)cc2n1Cc1ccc(-c2ccccc2C(=O)O)cc1 [telmisartan] : not being altered
CCCCC1=NC2(CCCC2)C(=O)N1Cc1ccc(-c2ccccc2-c2nnn[nH]2)cc1 [irbesartan] : not being altered
CCCCc1ncc(/C=C(\Cc2cccs2)C(=O)O)n1Cc1ccc(C(=O)O)cc1 [eprosartan] : not being altered
CC[C@@H](Nc1c(Nc2cccc(C(=O)N(C)C)c2O)c(=O)c1=O)c1ccc(C)o1 [navarixin] : completely inhibited
O=C(Nc1ccc([N+](=O)[O-])cc1O)Nc1ccccc1Br [SB225002] : completely inhibited
CCOc1nc2cccc(C(=O)O)c2n1Cc1ccc(-c2ccccc2-c2nc(=O)o[nH]2)cc1 [azilsartan] : not being altered
CCCCC(=O)N(Cc1ccc(-c2ccccc2-c2nnn[nH]2)cc1)[C@H](C(=O)O)C(C)C [valsartan] : not being altered
CCCCc1nc(Cl)c(CO)n1Cc1ccc(-c2ccccc2-c2nn[nH]n2)cc1 [losartan] : not being altered

[in] Name the reported effect of CXCL8 only on CXCR2/Rluc8-Venus/mGsi BRET value associated with the compound CCOc1nc2cccc(C(=O)O)c2n1Cc1ccc(-c2ccccc2-c2nnn[nH]2)cc1 [candesartan]
[out] not being altered

[in] Name the reported effect of CXCL8 only on CXCR2/Rluc8-Venus/mGsi BRET value associated with the compound Cc1c(F)cccc1NC(=O)Nc1ccc(Cl)c(S(=O)(=O)[C@H]2CCCNC2)c1O [danirixin]
[out] completely inhibited
